- experimental target: c-Src SH2
- protocol notes: SH2 binding enrichment of the phosphorylated peptide, bacterial display (enrichment ratio); higher = better substrate or ligand; peptides without Tyr show the background
Returns 1 if the recorded SH2 binding enrichment is greater than or equal to 0.6, and 0 otherwise.

Given GAVDTYCRHNF [HLA-DRB1_Y107_A102G_YF] , state whether its SH2 binding enrichment is at least 0.6.
1

Same read-out for VHFARYLAMNK [HARS1_Y138_P134H] ?
0

Same read-out for HRTLVYGGIFL [FBP1_Y259] ?
0

Same read-out for DLDATYRPMFS [JUP_Y701_M697L_YF] ?
0

Same read-out for GRSTCYWPRPR [GAGE12J_Y10_Y9C] ?
0

Same read-out for VRRVGYVSGWG [HP_Y280_G276R] ?
0

Same read-out for RLLVLYPWTQR [HBB_Y36_V35L] ?
1

Same read-out for KLFFIYTSGTT [SLC27A4_Y245_YF] ?
0

Same read-out for KPPPSYESEEE [BRD4_Y599_T598S] ?
1

Same read-out for SDVSSYLEGQA [GCG_Y110] ?
0

Same read-out for GKSDPYHATTG [GJA1_Y247_S251T] ?
0

Same read-out for LVMFIYAIFGM [SCN1A_Y1684] ?
1

Same read-out for QMVDMYASSYM [AVPR2_Y124_G122D] ?
1

###

- experimental target: c-Src SH2
- protocol notes: SH2 binding enrichment of the phosphorylated peptide, bacterial display (enrichment ratio); higher = better substrate or ligand; peptides without Tyr show the background
measured parameter: SH2 binding enrichment

Give the reported SH2 binding enrichment for TNIKRYHIAKG [HARS1_Y150_V155G] (system: c-Src SH2).
0.867

Same read-out for DPASAYADEVK [ETNPPL_Y189_S185P] ?
0.671

Same read-out for KPYRVYCDMNT [FGB_Y269] ?
1.04

Same read-out for LEAVSYSSRFA [RNLS_Y190_YF] ?
0.486

Same read-out for GADDSYYTVRS [ZAP70_Y492_A495V] ?
0.873

Same read-out for LLFRVYGLESL [INSR_Y94] ?
0.588

Same read-out for QRRYVYYYSYL [PTEN_Y176] ?
1

Same read-out for RRQDLYSARDL [SART1_Y249] ?
0.402

Same read-out for QLDQHYLLVPE [DDX49_Y223_R222H] ?
0.604

Same read-out for SILAVYSKDNF [PANK2_Y400_YF] ?
0.716

Same read-out for DVCKKYAEAKD [ALB_Y343_N342K] ?
0.562

Same read-out for YTFTSYYMHWV [IGHV1-46_Y51] ?
0.613

Same read-out for YAANYYKLLGN [ROR2_Y646_D644N] ?
0.501

Same read-out for LAETSYVKVLE [MAGEA1_Y276] ?
1.69

Same read-out for HLATEYVFSDF [PANX1_Y10_Q5H] ?
0.576

Same read-out for VRVQLYDPDYM [CYP4A22_Y100] ?
0.545

Same read-out for IDNKMYDPKMN [ENPP1_Y280] ?
0.578

Same read-out for GGTTLYPGIAD [ACTC1_Y308_M307L] ?
0.453

Same read-out for RDLTHYLMKIL [ACTG1_Y188_D187H] ?
1.6

Same read-out for PDGREYIFVDP [PDGFRA_Y572_H570R_YF] ?
0.543

Same read-out for "TENAGYYFRVS" ?
0.547

Same read-out for ENRLDYGSAWA [AR_Y395_P392R] ?
0.499

Same read-out for VECHPYFTQPK [AKR1D1_Y199] ?
0.444

Same read-out for GHLYAYNWISI [BEST1_Y227_D228N] ?
0.738

Same read-out for "TKGNEYVFRVA" ?
0.469

Same read-out for DPHQQYFIAMD [TBX15_Y159_YF] ?
0.655

Same read-out for HIILLYIFLKN [STXBP1_Y411_R406H] ?
1.51

Same read-out for KNITEYCRHLI [RECQL_Y492_D495H] ?
0.612

Same read-out for SIKDKYVTVLY [KCNH2_Y611_A614V] ?
1.06

Same read-out for EHFSYYGMKAV [SLC15A2_Y61_R57H] ?
0.951

Same read-out for ARKCKYFKKHE [NFIX_Y40_R38C] ?
0.646

Same read-out for DGTESYLTVSS [PLK1_Y462] ?
0.475

Same read-out for TQNGVYSAANF [DDX5_Y535_YF] ?
0.855

Same read-out for REGDKYVSHGA [ASS1_Y113_A111D] ?
0.407

Same read-out for FMGVEYSSCDT [EPHA3_Y937_T933M] ?
1.43

Same read-out for CTTSHYNFMCN [TP53_Y234_I232S_YF] ?
4.04

Same read-out for GILDVYIFLGP [GAA_Y340] ?
0.44

Same read-out for TKYVAYIESQG [KDM4B_Y34_N29T] ?
0.675

Same read-out for WRPFGYPRCRR [BCS1L_Y181_R184C] ?
0.459

Same read-out for LLVVLCKYRCY [PSEN1_Y154_Y154C] ?
1.33

Same read-out for MGIMLYGVDSR [PKD1_Y3143_V3138M] ?
0.439

Same read-out for NGRTGYVLQPE [PLCG2_Y1036] ?
0.496

Same read-out for FGLDRYQCDCT [PTGS1_Y54] ?
0.942

Same read-out for ATLDVYNPFET [SCAMP3_Y41] ?
0.536

Same read-out for FFRNVYHLASV [RBL1_Y796_K794N_YF] ?
1.79

Same read-out for NGSKGYAFVHF [PABPC5_Y147_YF] ?
3.1

Same read-out for FAAAGYGSLEA [EPHA10_Y959] ?
0.515

Same read-out for QNTGFYFDLFG [PTPN11_Y62_D61Y_YF] ?
0.663

Same read-out for AKRKNYAPVAM [CFAP47_Y557] ?
1.05

Same read-out for GQRDLYSGLNQ [CD3E_Y199] ?
0.822

Same read-out for KSDVVYTDWKK [ORM1_Y175] ?
0.505

Same read-out for VERRVYAEDPY [PCCA_Y401_C398R] ?
0.55

Same read-out for FLKDVYVDSKD [NDUFAF4_Y69] ?
0.413

Same read-out for RFLRGYRQYAY [HLA-A_Y137_D140Y] ?
0.322

Same read-out for METKGYQSLPE [NR3C2_Y6_H7Q] ?
0.841

Same read-out for PHMQTYEVDHN [SDHB_Y61_L65H] ?
0.591

Same read-out for LLNAIYLSAKR [SERPING1_Y294_W299R] ?
1.11

Same read-out for LQTYRYHGLSM [PDHA1_Y289_H292L] ?
0.399

###

- System: c-Src
- protocol notes: phosphorylation enrichment, bacterial display (enrichment ratio); higher = better substrate or ligand; peptides without Tyr show the background
Give phosphorylation enrichment for every item shown.
The reply should be a number, written without any unit.

Give the reported phosphorylation enrichment for TKDTFYKQRMF [GBA_Y451_P454R] (system: c-Src).
0.351

Same read-out for KPNMNYDKLSQ [FLI1_Y332_R337Q] ?
0.478

Same read-out for TFVKSYTIHFS [F5_Y2153_M2148T_YF] ?
0.447

Same read-out for TGEKLYQHKEF [ZNF283_Y627_R629H] ?
0.417

Same read-out for HFMELYDLNRD [BBS2_Y648_R643H_YF] ?
4.64

Same read-out for KTSGNYLPVTG [WDR19_Y28_A30P] ?
0.402

Same read-out for TYGNLYGSRKQ [YIPF7_Y59_A54T] ?
7.59

Same read-out for WNGDKYAATTT [TRIM39_Y439] ?
0.421

Same read-out for HSFQCYGQNEA [ENTPD3_Y262_R264Q] ?
0.441

Same read-out for CTTIHYNYMHN [TP53_Y234_C238H] ?
0.349

Same read-out for HNGVSYFINLC [IGF2R_Y2024_YF] ?
0.668

Same read-out for PLQKTYNYNVL [SLC4A1_Y553] ?
0.565

Same read-out for HRTLVYGGIFL [FBP1_Y259] ?
3.83

Same read-out for LLFRVYGLESL [INSR_Y94] ?
0.565

###

- experimental target: Grb2 SH2 (UniProt P62993)
- Sequence (P62993 whole entry, looked up): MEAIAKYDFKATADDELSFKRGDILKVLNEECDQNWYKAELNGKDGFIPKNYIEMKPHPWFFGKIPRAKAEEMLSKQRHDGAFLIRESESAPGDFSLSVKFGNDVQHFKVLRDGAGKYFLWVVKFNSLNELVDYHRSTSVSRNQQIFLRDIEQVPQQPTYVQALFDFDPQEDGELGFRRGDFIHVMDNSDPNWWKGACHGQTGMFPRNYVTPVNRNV
- protocol notes: SH2 binding enrichment of the phosphorylated peptide, bacterial display (enrichment ratio); higher = better substrate or ligand; peptides without Tyr show the background
measured parameter: SH2 binding enrichment
The reply should be a number, written without any unit.

Give the reported SH2 binding enrichment for ISHVAYCVLGK [TRRAP_Y892_R893C] (system: Grb2 SH2 (UniProt P62993)).
0.839

Same read-out for GILDVYIFLGP [GAA_Y340] ?
0.768

Same read-out for YTFTSYYMHWV [IGHV1-46_Y51] ?
0.978

Same read-out for SHGKQYRVPSD [HHIPL2_Y395_R394Q] ?
0.686

Same read-out for HILQLYRCREE [ALPK3_Y342_T338I] ?
0.729

Same read-out for QNTADYYDLYG [PTPN11_Y62_G60A] ?
1.25

Same read-out for KVMANYMYKAG [MAML2_Y513] ?
1.16
